Tested on: P12-Ichikawa
method description: cell viability relative to DMSO control; higher = less cytotoxic
condition details: RPMI 5 mM glucose + 10% dialyzed FBS; 48 h; 46.1 µM
parameter: cell viability
Output should be the measured figure followed by the unit it is expressed in.

Solved cases below.
[
  {
    "compound": "CCN(CCO)CCCC(C)Nc1ccnc2cc(Cl)ccc12 (stereo unspecified)",
    "cell viability": "15.4%"
  },
  {
    "compound": "CCCCc1oc2ccccc2c1C(=O)c1cc(I)c(OCCN(CC)CC)c(I)c1",
    "cell viability": "94.5%"
  },
  {
    "compound": "COc1ccc2c(c1)CC[C@@H](CN(C)CC(=O)O)[C@H]2c1ccccc1",
    "cell viability": "29.1%"
  },
  {
    "compound": "N[S+](=O)([O-])c1cc2c(cc1Cl)NCN[S+]2(=O)[O-]",
    "cell viability": "104%"
  },
  {
    "compound": "CC(C)C[C@@H](C(=O)N[C@H](C(=O)OC1CCCC1)c1ccccc1)[C@H](O)C(=O)NO",
    "cell viability": "35.9%"
  },
  {
    "compound": "CN1C(=O)\\C(=C/C2=C1N=C(NC3CCOCC3)N=C2)OC4=C(F)C=C(F)C=C4",
    "cell viability": "35.9%"
  },
  {
    "compound": "Cc1cc(-c2ccc(CC(=O)Nc3ccc(-c4cccnc4)cc3)cc2)ccn1",
    "cell viability": "55.7%"
  },
  {
    "compound": "OC[C@H]1O[C@H](C[C@@H]1O)N2\\C=C(\\I)C(=O)NC2=O",
    "cell viability": "110%"
  },
  {
    "compound": "CC(C)C1=N[N](C\\2=C1C(=O)N\\C(=N2)CC3=CC=C(OCCO)C=C3)C4=C(Cl)C=CC=C4Cl",
    "cell viability": "3.77%"
  },
  {
    "compound": "COc1ccccc1N1CCN(CC(O)COc2cccc3ccccc23)CC1 (stereo unspecified)",
    "cell viability": "82.4%"
  }
]

Record request: cell viability value, item O=P1(NCCCl)OCCCN1CCCl (stereo unspecified) 79.8%
